System: HEK-293T
assay.procedure: Multiplex assay against HEK293T
Assay type: toxicity, cell-based
condition.info: human, 12 h, 1 µM, compound concentration 1 uM
observable: Population Pyknosed Nuclei (%)
Write down the numeric answer in % and omit the unit.

## Input Name the recorded Population Pyknosed Nuclei (%) for CNC[C@H](O)c1ccc(O)c(O)c1 [EPINEPHRINE] .
## Output 11

## Input Name the recorded Population Pyknosed Nuclei (%) for "COCCn1c(C)c(C)s/c1=N\C(=O)C1C(C)(C)C1(C)C" .
## Output 12

## Input Name the recorded Population Pyknosed Nuclei (%) for "C[C@@H]1C[C@H]2[C@@H]3CCC4=CC(=O)C=C[C@]4(C)[C@@]3(F)[C@@H](O)C[C@]2(C)[C@@]1(O)C(=O)CO" .
## Output 12

## Input Name the recorded Population Pyknosed Nuclei (%) for "C[C@@H]1CC(=O)Nc2cccc(-c3ccc4c(c3)c(-c3cnn(C)c3)nn4C)c2N1" .
## Output 16
